Origin of values: patent US20020065219A1

Test system: Enterococcus faecalis A20688
Assay: MIC, broth micro dilution assay (NCCLS)
Type: cell-based
Details: Mueller-Hinton medium, 35° C., 18 hours
metric: MIC (μg/mL) against Enterococcus faecalis A20688 (µg/mL)
Give a bare numeral; the unit µg/mL is implied.

// known answers, use as guide
compound	readout-number
CO/C(C)=C1/NC(=O)C(C(C)O)NC(=O)c2csc(n2)-c2cc(O)c(-c3nc(C(=O)NC(CNCCCCN)C(N)=O)cs3)nc2-c2csc(n2)C2COC(=O)c3c4c5c(cccc5n3O)COC(=O)C(O[C@H]3C[C@](C)(O)[C@H](N(C)C)[C@H](C)O3)C(OC4)C(NC(=O)c3csc1n3)c1nc(cs1)C(=O)N2 (stereo partly drawn)	8.0
CO/C(C)=C1/NC(=O)C(C(C)O)NC(=O)c2csc(n2)-c2cc(O)c(-c3nc(C(=O)NC(CN(C)CCCn4ccnc4)C(N)=O)cs3)nc2-c2csc(n2)C2COC(=O)c3c4c5c(cccc5n3O)COC(=O)C(O[C@H]3C[C@](C)(O)[C@H](N(C)C)[C@H](C)O3)C(OC4)C(NC(=O)c3csc1n3)c1nc(cs1)C(=O)N2 (stereo partly drawn)	0.5

Switching to the query record.
Could you please provide reported MIC (μg/mL) against Enterococcus faecalis A20688 for CCC(O)C1CCCN1CC(NC(=O)c1csc(-c2nc3c(cc2O)-c2nc(cs2)C(=O)NC(C(C)O)C(=O)NC(=C(C)OC)c2nc(cs2)C(=O)NC2c4nc(cs4)C(=O)NC(COC(=O)c4c5c6c(cccc6n4O)COC(=O)C(OC4CC(C)(O)C(N(C)C)C(C)O4)C2OC5)c2nc-3cs2)n1)C(N)=O (stereo not drawn) ? Thanks! 0.06

====

Tested on: Enterococcus faecalis A20688
Test: MIC, broth micro dilution assay (NCCLS)
Type: cell-based
Conditions: Mueller-Hinton medium, 35° C., 18 hours
metric: MIC (μg/mL) against Enterococcus faecalis A20688
Field note: include the unit after the figure.

compound	result
CO/C(C)=C1/NC(=O)C(C(C)O)NC(=O)c2csc(n2)-c2cc(O)c(-c3nc(C(=O)NC(CSCCc4cnccn4)C(N)=O)cs3)nc2-c2csc(n2)C2COC(=O)c3c4c5c(cccc5n3O)COC(=O)C(O[C@H]3C[C@](C)(O)[C@H](N(C)C)[C@H](C)O3)C(OC4)C(NC(=O)c3csc1n3)c1nc(cs1)C(=O)N2 (stereo partly drawn)	0.25 µg/mL
CNC(=O)N(C)CC(NC(=O)c1csc(-c2nc3c(cc2O)-c2nc(cs2)C(=O)NC(C(C)O)C(=O)N/C(=C(\C)OC)c2nc(cs2)C(=O)NC2c4nc(cs4)C(=O)NC(COC(=O)c4c5c6c(cccc6n4O)COC(=O)C(OC4CC(C)(O)C(N(C)C)C(C)O4)C2OC5)c2nc-3cs2)n1)C(N)=O (stereo not drawn)	0.5 µg/mL
COC(C)=C1NC(=O)C(C(C)O)NC(=O)c2csc(n2)-c2cc(O)c(-c3nc(C(=O)NC(CN4CCCC4C(O)c4nccn4C)C(N)=O)cs3)nc2-c2csc(n2)C2COC(=O)c3c4c5c(cccc5n3O)COC(=O)C(OC3CC(C)(O)C(N(C)C)C(C)O3)C(OC4)C(NC(=O)c3csc1n3)c1nc(cs1)C(=O)N2 (stereo not drawn)	0.06 µg/mL
CO/C(C)=C1/NC(=O)C(C(C)O)NC(=O)c2csc(n2)-c2cc(O)c(-c3nc(C(=O)NC(CNCCn4cc([N+](=O)[O-])nc4C)C(N)=O)cs3)nc2-c2csc(n2)C2COC(=O)c3c4c5c(cccc5n3O)COC(=O)C(O[C@H]3C[C@](C)(O)[C@H](N(C)C)[C@H](C)O3)C(OC4)C(NC(=O)c3csc1n3)c1nc(cs1)C(=O)N2 (stereo partly drawn)	8.0 µg/mL
COC(C)=C1NC(=O)C(C(C)O)NC(=O)c2csc(n2)-c2cc(O)c(-c3nc(C(=O)NC(CNC(CO)Cc4c[nH]cn4)C(N)=O)cs3)nc2-c2csc(n2)C2COC(=O)c3c4c5c(cccc5n3O)COC(=O)C(OC3CC(C)(O)C(N(C)C)C(C)O3)C(OC4)C(NC(=O)c3csc1n3)c1nc(cs1)C(=O)N2 (stereo not drawn) [Example 66]	16 µg/mL

Switching to the query record.
Could you please provide reported MIC (μg/mL) against Enterococcus faecalis A20688 for CO/C(C)=C1/NC(=O)C(C(C)O)NC(=O)c2csc(n2)-c2cc(O)c(-c3nc(C(=O)NC(CN(CCCN(C)C)CCCN(C)C)C(N)=O)cs3)nc2-c2csc(n2)C2COC(=O)c3c4c5c(cccc5n3O)COC(=O)C(O[C@H]3C[C@](C)(O)[C@H](N(C)C)[C@H](C)O3)C(OC4)C(NC(=O)c3csc1n3)c1nc(cs1)C(=O)N2 (stereo partly drawn) ? Thanks! 2.0 µg/mL

====

System: Enterococcus faecalis A20688
Experiment: MIC, broth micro dilution assay (NCCLS)
Type: cell-based
Details: Mueller-Hinton medium, 35° C., 18 hours
Recorded MIC (μg/mL) against Enterococcus faecalis A20688, one value per entry.
Give a bare numeral; the unit µg/mL is implied.

// known answers, use as guide
molecule	readout-number
CO/C(C)=C1/NC(=O)C(C(C)O)NC(=O)c2csc(n2)-c2cc(O)c(-c3nc(C(=O)NC(CN4CCN(CCOCCO)CC4)C(N)=O)cs3)nc2-c2csc(n2)C2COC(=O)c3c4c5c(cccc5n3O)COC(=O)C(O[C@H]3C[C@](C)(O)[C@H](N(C)C)[C@H](C)O3)C(OC4)C(NC(=O)c3csc1n3)c1nc(cs1)C(=O)N2 (stereo partly drawn) [Example 49]	2.0
CO/C(C)=C1/NC(=O)C(C(C)O)NC(=O)c2csc(n2)-c2cc(O)c(-c3nc(C(=O)NC(CSCCS(=O)(=O)O)C(N)=O)cs3)nc2-c2csc(n2)C2COC(=O)c3c4c5c(cccc5n3O)COC(=O)C(O[C@H]3C[C@](C)(O)[C@H](N(C)C)[C@H](C)O3)C(OC4)C(NC(=O)c3csc1n3)c1nc(cs1)C(=O)N2 (stereo partly drawn) [Example 46]	128

Switching to the query record.
Could you please provide reported MIC (μg/mL) against Enterococcus faecalis A20688 for CO/C(C)=C1/NC(=O)C(C(C)O)NC(=O)c2csc(n2)-c2cc(O)c(-c3nc(C(=O)NC(CSCCc4nnn[nH]4)C(N)=O)cs3)nc2-c2csc(n2)C2COC(=O)c3c4c5c(cccc5n3O)COC(=O)C(O[C@H]3C[C@](C)(O)[C@H](N(C)C)[C@H](C)O3)C(OC4)C(NC(=O)c3csc1n3)c1nc(cs1)C(=O)N2 (stereo partly drawn) [Example 47] ? Thanks! 32

====

Tested on: Enterococcus faecalis A20688
Test: MIC, broth micro dilution assay (NCCLS)
Assay type: cell-based
Conditions: Mueller-Hinton medium, 35° C., 18 hours
We label by threshold. Values of MIC (μg/mL) against Enterococcus faecalis A20688 strictly beneath 1 µg/mL are TRUE. Values of 1 µg/mL and up are FALSE.

Observe how each entry below is paired with its result.
compound	classification
CNCCN(C)CC(NC(=O)c1csc(-c2nc3c(cc2O)-c2nc(cs2)C(=O)NC(C(C)O)C(=O)N/C(=C(\C)OC)c2nc(cs2)C(=O)NC2c4nc(cs4)C(=O)NC(COC(=O)c4c5c6c(cccc6n4O)COC(=O)C(O[C@H]4C[C@](C)(O)[C@H](N(C)C)[C@H](C)O4)C2OC5)c2nc-3cs2)n1)C(N)=O (stereo partly shown)	TRUE
CO/C(C)=C1/NC(=O)C(C(C)O)NC(=O)c2csc(n2)-c2cc(O)c(-c3nc(C(=O)NC(CNCCN(CCN)CCN)C(N)=O)cs3)nc2-c2csc(n2)C2COC(=O)c3c4c5c(cccc5n3O)COC(=O)C(O[C@H]3C[C@](C)(O)[C@H](N(C)C)[C@H](C)O3)C(OC4)C(NC(=O)c3csc1n3)c1nc(cs1)C(=O)N2 (stereo partly shown)	FALSE
CCOC(=O)CN1CCN(CC(NC(=O)c2csc(-c3nc4c(cc3O)-c3nc(cs3)C(=O)NC(C(C)O)C(=O)N/C(=C(\C)OC)c3nc(cs3)C(=O)NC3c5nc(cs5)C(=O)NC(COC(=O)c5c6c7c(cccc7n5O)COC(=O)C(O[C@H]5C[C@](C)(O)[C@H](N(C)C)[C@H](C)O5)C3OC6)c3nc-4cs3)n2)C(N)=O)CC1 (stereo partly shown)	TRUE
COC(C)=C1NC(=O)C(C(C)O)NC(=O)c2csc(n2)-c2cc(O)c(-c3nc(C(=O)NC(CN4CCCC4C(C)O)C(N)=O)cs3)nc2-c2csc(n2)C2COC(=O)c3c4c5c(cccc5n3O)COC(=O)C(OC3CC(C)(O)C(N(C)C)C(C)O3)C(OC4)C(NC(=O)c3csc1n3)c1nc(cs1)C(=O)N2 (stereo not shown) [Example 86]	TRUE
COC(C)=C1NC(=O)C(C(C)O)NC(=O)c2csc(n2)-c2cc(O)c(-c3nc(C(=O)NC(CN4CCCC4C(C)(C)O)C(N)=O)cs3)nc2-c2csc(n2)C2COC(=O)c3c4c5c(cccc5n3O)COC(=O)C(OC3CC(C)(O)C(N(C)C)C(C)O3)C(OC4)C(NC(=O)c3csc1n3)c1nc(cs1)C(=O)N2 (stereo not shown)	TRUE
CO/C(C)=C1/NC(=O)C(C(C)O)NC(=O)c2csc(n2)-c2cc(O)c(-c3nc(C(=O)NC(CNCCN(C)C)C(N)=O)cs3)nc2-c2csc(n2)C2COC(=O)c3c4c5c(cccc5n3O)COC(=O)C(O[C@H]3C[C@](C)(O)[C@H](N(C)C)[C@H](C)O3)C(OC4)C(NC(=O)c3csc1n3)c1nc(cs1)C(=O)N2 (stereo partly shown)	FALSE
COCC(Cn1ccnc1)SCC(NC(=O)c1csc(-c2nc3c(cc2O)-c2nc(cs2)C(=O)NC(C(C)O)C(=O)NC(=C(C)OC)c2nc(cs2)C(=O)NC2c4nc(cs4)C(=O)NC(COC(=O)c4c5c6c(cccc6n4O)COC(=O)C(OC4CC(C)(O)C(N(C)C)C(C)O4)C2OC5)c2nc-3cs2)n1)C(N)=O (stereo not shown)	TRUE
CO/C(C)=C1/NC(=O)C(C(C)O)NC(=O)c2csc(n2)-c2cc(O)c(-c3nc(C(=O)NC(CSC(CC(=O)O)C(=O)O)C(N)=O)cs3)nc2-c2csc(n2)C2COC(=O)c3c4c5c(cccc5n3O)COC(=O)C(O[C@H]3C[C@](C)(O)[C@H](N(C)C)[C@H](C)O3)C(OC4)C(NC(=O)c3csc1n3)c1nc(cs1)C(=O)N2 (stereo partly shown)	FALSE

Problem: For the compound COC(C)=C1NC(=O)C(C(C)O)NC(=O)c2csc(n2)-c2cc(O)c(-c3nc(C(=O)NC(CN4CCCC4CO)C(N)=O)cs3)nc2-c2csc(n2)C2COC(=O)c3c4c5c(cccc5n3O)COC(=O)C(OC3CC(C)(O)C(N(C)C)C(C)O3)C(OC4)C(NC(=O)c3csc1n3)c1nc(cs1)C(=O)N2 (stereo not shown) , is MIC (μg/mL) against Enterococcus faecalis A20688 under 1 µg/mL? TRUE

Problem: For the compound CO/C(C)=C1/NC(=O)C(C(C)O)NC(=O)c2csc(n2)-c2cc(O)c(-c3nc(C(=O)NC(CNCCNC(C)=O)C(N)=O)cs3)nc2-c2csc(n2)C2COC(=O)c3c4c5c(cccc5n3O)COC(=O)C(O[C@H]3C[C@](C)(O)[C@H](N(C)C)[C@H](C)O3)C(OC4)C(NC(=O)c3csc1n3)c1nc(cs1)C(=O)N2 (stereo partly shown) , is MIC (μg/mL) against Enterococcus faecalis A20688 under 1 µg/mL? FALSE

Problem: For the compound COC(C)=C1NC(=O)C(C(C)O)NC(=O)c2csc(n2)-c2cc(O)c(-c3nc(C(=O)NC(CN4CCCC4C(O)C(C)C)C(N)=O)cs3)nc2-c2csc(n2)C2COC(=O)c3c4c5c(cccc5n3O)COC(=O)C(OC3CC(C)(O)C(N(C)C)C(C)O3)C(OC4)C(NC(=O)c3csc1n3)c1nc(cs1)C(=O)N2 (stereo not shown) , is MIC (μg/mL) against Enterococcus faecalis A20688 under 1 µg/mL? TRUE
